procedure.summary: Solubility in buffer pH 6.8
condition.summary: buffer pH 6.8, 25 °C, pH 6.8, aqueous buffer, thermodynamic from solid
test.readout: solubility at 1 h (µg/mL)
Only the number, expressed in µg/mL, is required.

(Q) GET /values?readout=solubility at 1 h&item= "CCCCCCCCN1CCc2c(C)c(CC(=O)O)c(C)c(NC(=O)C(C)(C)C)c21"
(A) 6900

----------
System: plasma lipoperoxidation
procedure.summary: In vitro plasma lipoperoxidation inhibitory activity (malondialdehyde production)
Format: biochemical, Wister rats
condition.summary: rat heparinized plasma, test compound final concentration 10^-5M, copper sulfate, malondialdehyde production vs control
test.readout: Inhibition (%) of plasma lipoperoxidation
# output: bare number, implied unit %

{"compound": "CCCCCCCCN1CCc2c(C)c(CC(=O)OCC)c(C)c(NC(=O)C(C)(C)C)c21", "endpoint.result": 49.2}
{"compound": "CCCCCCCCN1CC(CCC(=O)O)c2c(C)cc(C)c(NC(=O)C(C)(C)C)c21 (stereo not drawn)", "endpoint.result": 44.5}

Now take the following compound into account.
(Q) Can you look up the measured Inhibition (%) of plasma lipoperoxidation of "CCCCCCCCN1CCc2c(C)c(CC(=O)O)c(C)c(NC(=O)C(C)(C)C)c21" for me?
(A) 51.2

----------
Test system: serum total cholesterol
procedure.summary: Serum total cholesterol reducing effect in rats on high cholesterol feed
Type: in vivo
condition.summary: 3 mg/kg/day orally once a day for 3 days, male Wister rats, vs control
Some compounds, each annotated with its measured Reduction (%) of serum total cholesterol.
Value expressed in %; do not type the unit.

Here's what some known entries look like.
{"compound": "CCCCCCCCN1CCc2c(C)c(CO)c(C)c(NC(=O)C(C)(C)C)c21", "study.target": "serum total cholesterol", "u": "%", "endpoint.result": 52.8}
{"compound": "CCCCCCCCN1CCc2c(C)c(CC(=O)OCC)c(C)c(NC(=O)C(C)(C)C)c21", "study.target": "serum total cholesterol", "u": "%", "endpoint.result": 54.2}
{"compound": "CCCCSCCCCCCN1CCc2c(C)c(CC(=O)O)c(C)c(NC(=O)C(C)(C)C)c21", "study.target": "serum total cholesterol", "u": "%", "endpoint.result": 87.8}
{"compound": "CCCCSCCCN1CCc2c(C)c(CC(=O)O)c(C)c(NC(=O)C(C)(C)C)c21", "study.target": "serum total cholesterol", "u": "%", "endpoint.result": 88.2}
{"compound": "CCCCCCCCN1CCc2cc(CC(=O)O)c(C)c(NC(=O)C(C)(C)C)c21 [Example 116]", "study.target": "serum total cholesterol", "u": "%", "endpoint.result": 26.5}

(Q) So what does the record say about Reduction (%) of serum total cholesterol for "CCCCCCCCN1CCc2c(C)c(CCC(=O)O)c(C)c(NC(=O)C(C)(C)C)c21" ?
(A) 45.8

(Q) So what does the record say about Reduction (%) of serum total cholesterol for "CCCCCCCCN1CCc2c(C)c(C(=O)O)c(C)c(NC(=O)C(C)(C)C)c21" ?
(A) 53.8

(Q) Suppose we examine the compound Cc1cc(C)c(NC(=O)N(Cc2ccc3c(c2)Cc2ccccc2-3)C2CCCCCC2)c(C)c1 [YM-750, reference compound] ; what Reduction (%) of serum total cholesterol value has been reported?
(A) 37.7

(Q) Recorded Reduction (%) of serum total cholesterol of "CCCCCCCCN1CCc2c(C)c(CC(=O)O)c(C)c(NC(=O)C(C)(C)C)c21" , please.
(A) 58.8

(Q) What value of measured Reduction (%) of serum total cholesterol is listed for "CCCCCCCCN1CCc2cc(CN(C)C)c(C)c(NC(=O)C(C)(C)C)c21" ?
(A) 31.7

(Q) Fill blank: measured Reduction (%) of serum total cholesterol of the compound CCCCCCCCN1CCc2cc(CC(=O)O)c(C)c(NC(=O)C(C)(C)C)c21 [Example 71] is ____.
(A) 26.5

(Q) Report Reduction (%) of serum total cholesterol for "CCCCCCCCN1CCCc2c(C)c(CC(=O)O)c(C)c(NC(=O)C(C)(C)C)c21" please.
(A) 30.2

(Q) Look at this compound and give its reported Reduction (%) of serum total cholesterol. "CCCCCCCCN1CCc2cc(C(=O)O)c(C)c(NC(=O)C(C)(C)C)c21"
(A) 55.2
